Target: chimeric Taq 8-1 (Thermus aquaticus / environmental DNA chimera)
Assay: EMSA
Conditions: EMSA: 3 nM DNA, 20 mM Tris-HCl pH 8.8, 10 mM NaCl, 5 mM MgCl2, 14 mM 2-mercaptoethanol, 0.1 mg/ml BSA, 5% glycerol, 40 C, 5 min; 1% agarose gel
pKd: −log10 of the molar value.
observed.property: pKd

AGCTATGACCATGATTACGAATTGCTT / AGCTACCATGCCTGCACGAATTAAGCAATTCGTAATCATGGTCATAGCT [primed DNA (27mer/49mer)]: 8.00

###

Target: chimeric Taq 1-2 (Thermus aquaticus / environmental DNA chimera) (UniProt P19821)
Sequence (P19821 whole entry, change not shown): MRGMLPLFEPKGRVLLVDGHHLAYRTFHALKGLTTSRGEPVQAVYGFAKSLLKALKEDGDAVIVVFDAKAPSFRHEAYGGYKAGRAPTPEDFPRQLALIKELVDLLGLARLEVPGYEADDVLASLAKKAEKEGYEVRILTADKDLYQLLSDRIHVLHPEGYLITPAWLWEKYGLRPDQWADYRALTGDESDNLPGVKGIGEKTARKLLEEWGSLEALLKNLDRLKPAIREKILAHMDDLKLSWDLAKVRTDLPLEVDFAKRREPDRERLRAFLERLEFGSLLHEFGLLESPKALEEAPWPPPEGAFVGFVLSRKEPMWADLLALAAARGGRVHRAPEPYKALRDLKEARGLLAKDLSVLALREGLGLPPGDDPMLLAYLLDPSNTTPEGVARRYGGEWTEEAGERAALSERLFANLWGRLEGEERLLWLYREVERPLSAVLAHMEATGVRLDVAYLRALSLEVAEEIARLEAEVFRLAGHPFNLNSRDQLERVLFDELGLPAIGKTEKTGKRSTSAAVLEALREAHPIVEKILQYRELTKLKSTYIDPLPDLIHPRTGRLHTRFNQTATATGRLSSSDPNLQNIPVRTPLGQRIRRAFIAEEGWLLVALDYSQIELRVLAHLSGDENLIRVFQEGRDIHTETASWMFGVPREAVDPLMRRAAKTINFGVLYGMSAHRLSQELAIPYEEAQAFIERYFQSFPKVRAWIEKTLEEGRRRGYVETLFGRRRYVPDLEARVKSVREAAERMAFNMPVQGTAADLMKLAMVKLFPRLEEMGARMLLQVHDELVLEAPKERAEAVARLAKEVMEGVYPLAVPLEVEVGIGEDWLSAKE
Assay: EMSA
Conditions: EMSA: 3 nM DNA, 20 mM Tris-HCl pH 8.8, 10 mM NaCl, 5 mM MgCl2, 14 mM 2-mercaptoethanol, 0.1 mg/ml BSA, 5% glycerol, 40 C, 5 min; 1% agarose gel
pKd: −log10 of the molar value.
observed.property: pKd

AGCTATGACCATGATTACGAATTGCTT / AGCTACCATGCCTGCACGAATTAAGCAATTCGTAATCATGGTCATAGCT [primed DNA (27mer/49mer)]: 8.30

Origin of measurements: paper PMC4153296
